experiment: Cytotoxicity against african green monkey Vero cells after 72 hrs; type: cell-based; conditions: chlorocebus sabaeus
Lab note: class by CC50 at 72 h, see low range: < 200 µg/mL; mid range: ≥ 200 µg/mL and < 400 µg/mL; high range: ≥ 400 µg/mL

[[record]]
compound = "O=C(c1ccc(N2CCOCC2)cc1)C1CC1c1ccc(Cl)cc1 (stereo unspecified)"
category_label = "high range"

[[record]]
compound = "CN1CCN(c2ccc(C(=O)C3CC3c3ccc(Cl)cc3)cc2)CC1 (stereo unspecified)"
category_label = "low range"

[[record]]
compound = "O=C(/C=C/c1ccc(Cl)cc1)c1ccc(N2CCOCC2)cc1"
category_label = "low range"

[[record]]
compound = "CCCCN(CCCC)c1ccc(C(=O)C2CC2c2ccc(Cl)cc2)cc1 (stereo unspecified)"
category_label = "high range"

[[record]]
compound = "O=C(c1ccc(N2CCN(c3cccc(Cl)c3Cl)CC2)cc1)C1CC1c1ccc(Cl)cc1 (stereo unspecified)"
category_label = "mid range"

[[record]]
compound = "O=C(c1ccc(NCCn2ccnc2)cc1)C1CC1c1ccc(Cl)cc1 (stereo unspecified)"
category_label = "mid range"

[[record]]
compound = "O=C(/C=C/c1ccc(Cl)cc1)c1ccc(N2CCCCC2)cc1"
category_label = "mid range"

[[record]]
compound = "CCCCCCCCNc1ccc(C(=O)C2CC2c2ccc(Cl)cc2)cc1 (stereo unspecified)"
category_label = "mid range"

[[record]]
compound = "O=C(c1ccc(NCc2ccco2)cc1)C1CC1c1ccc(Cl)cc1 (stereo unspecified)"
category_label = "mid range"


----------
experiment: Cytotoxicity against african green monkey Vero cells after 72 hrs; type: cell-based; details: chlorocebus sabaeus
Metric Name: log10 of CC50 at 72 h (log10 of the value in µg/mL)

[[record]]
compound = "CCCCNc1ccc(C(=O)C2CC2c2ccc(Cl)cc2)cc1 (stereo unspecified)"
reading = 2.50

[[record]]
compound = "CN(C)CCCNc1ccc(C(=O)C2CC2c2ccc(Cl)cc2)cc1 (stereo unspecified)"
reading = 1.20

[[record]]
compound = "O=C(c1ccc(N2CCCCC2)cc1)C1CC1c1ccc(Cl)cc1 (stereo unspecified)"
reading = 2.45

[[record]]
compound = "CCCCCCCNc1ccc(C(=O)C2CC2c2ccc(OC)c(OC)c2)cc1 (stereo unspecified)"
reading = 2.44

[[record]]
compound = "COc1ccc(C2CC2C(=O)c2ccc(N3CCN(C)CC3)cc2)cc1OC (stereo unspecified)"
reading = 1.89

[[record]]
compound = "O=C(c1ccc(NCCn2cnc3ccccc32)cc1)C1CC1c1ccc(Cl)cc1 (stereo unspecified)"
reading = 2.45


----------
assay: Selectivity index, ratio of CC50 for african green monkey (Cercopithecus aethiops) Vero cells to IC50 for Plasmodium falciparum 3D7; format: functional
Please mark 1 if the recorded Ratio CC50/IC50 is equal to or greater than 200, and 0 if it falls below.

[[record]]
molecule = "CCCCCCCCCCCCNc1ccc(C(=O)C2CC2c2ccc(Cl)cc2)cc1 (stereo unspecified)"
category_label = 0

[[record]]
molecule = "CN(C)c1ccc(C(=O)C2CC2c2ccc(Cl)cc2)cc1 (stereo unspecified)"
category_label = 1

[[record]]
molecule = "O=C(c1ccc(N2CCOCC2)cc1)C1CC1c1ccc(Cl)cc1 (stereo unspecified)"
category_label = 0

[[record]]
molecule = "O=C(c1ccc(NCCO)cc1)C1CC1c1ccc(Cl)cc1 (stereo unspecified)"
category_label = 1

[[record]]
molecule = "CCCCCCCNc1ccc(C(=O)C2CC2c2ccc(Cl)cc2)cc1 (stereo unspecified)"
category_label = 1

[[record]]
molecule = "O=C(c1ccc(NCCn2cncn2)cc1)C1CC1c1ccc(Cl)cc1 (stereo unspecified)"
category_label = 0


----------
assay: Selectivity index, ratio of CC50 for african green monkey (Cercopithecus aethiops) Vero cells to IC50 for Plasmodium falciparum 3D7; type: functional
Metric Name: Ratio CC50/IC50

[[record]]
molecule = "CN1CCN(c2ccc(C(=O)/C=C/c3ccc(Cl)cc3)cc2)CC1"
reading = 8.69

[[record]]
molecule = "O=C(c1ccc(N2CCCCC2)cc1)C1CC1c1ccc(Cl)cc1 (stereo unspecified)"
reading = 46.99

[[record]]
molecule = "COc1ccc(CNc2ccc(C(=O)C3CC3c3ccc(Cl)cc3)cc2)cc1OC (stereo unspecified)"
reading = 52.73

[[record]]
molecule = "CN(C)CCCNc1ccc(C(=O)C2CC2c2ccc(Cl)cc2)cc1 (stereo unspecified)"
reading = 5.53

[[record]]
molecule = "COc1ccc(C2CC2C(=O)c2ccc(N3CCN(C)CC3)cc2)cc1OC (stereo unspecified)"
reading = 37.23

[[record]]
molecule = "CCCCNc1ccc(C(=O)C2CC2c2ccc(Cl)cc2)cc1 (stereo unspecified)"
reading = 958.69

[[record]]
molecule = "O=C(/C=C/c1ccc(Cl)cc1)c1ccc(N2CCCCC2)cc1"
reading = 26.3

[[record]]
molecule = "CN1CCN(c2ccc(C(=O)C3CC3c3ccc(Cl)cc3)cc2)CC1 (stereo unspecified)"
reading = 151.96

[[record]]
molecule = "O=C(c1ccc(NCCn2cnc3ccccc32)cc1)C1CC1c1ccc(Cl)cc1 (stereo unspecified)"
reading = 385.45

[[record]]
molecule = "O=C(c1ccc(NCCn2ccnc2)cc1)C1CC1c1ccc(Cl)cc1 (stereo unspecified)"
reading = 6948.57

[[record]]
molecule = "CCCCCCCNc1ccc(C(=O)C2CC2c2ccc(OC)c(OC)c2)cc1 (stereo unspecified)"
reading = 121.67


----------
test: Cytotoxicity against african green monkey Vero cells after 72 hrs; format: cell-based; settings: chlorocebus sabaeus
Metric Name: log10 CC50 at 72 h (log10 of the value in µg/mL)

[[record]]
compound = "O=C(c1ccc(N2CCCC2)cc1)C1CC1c1ccc(Cl)cc1 (stereo unspecified)"
reading = 2.63

[[record]]
compound = "CCCCCCCC/C=C\\CCCCCCCCNc1ccc(C(=O)C2CC2c2ccc(Cl)cc2)cc1 (stereo unspecified)"
reading = 2.59

[[record]]
compound = "O=C(c1ccc(NCCn2cncn2)cc1)C1CC1c1ccc(Cl)cc1 (stereo unspecified)"
reading = 1.60

[[record]]
compound = "CN(C)CCCNc1ccc(C(=O)/C=C/c2ccc(Cl)cc2)cc1"
reading = 0.77

[[record]]
compound = "O=C(c1ccc(NC2CCCCC2)cc1)C1CC1c1ccc(Cl)cc1 (stereo unspecified)"
reading = 2.29

[[record]]
compound = "CCCCCCCCCCCCNc1ccc(C(=O)C2CC2c2ccc(Cl)cc2)cc1 (stereo unspecified)"
reading = 2.59

[[record]]
compound = "COc1ccc(CNc2ccc(C(=O)C3CC3c3ccc(Cl)cc3)cc2)cc1OC (stereo unspecified)"
reading = 2.63

[[record]]
compound = "CN1CCN(c2ccc(C(=O)/C=C/c3ccc(Cl)cc3)cc2)CC1"
reading = 2.01

[[record]]
compound = "O=C(c1ccc(NCCO)cc1)C1CC1c1ccc(Cl)cc1 (stereo unspecified)"
reading = 2.48

[[record]]
compound = "CCCCCCCNc1ccc(C(=O)C2CC2c2ccc(Cl)cc2)cc1 (stereo unspecified)"
reading = 2.60

[[record]]
compound = "CN(C)c1ccc(C(=O)C2CC2c2ccc(Cl)cc2)cc1 (stereo unspecified)"
reading = 2.54


----------
test: Selectivity index, ratio of CC50 for african green monkey (Cercopithecus aethiops) Vero cells to IC50 for Plasmodium falciparum 3D7; format: functional
Response field label takes true (1) when Ratio CC50/IC50 is strictly below 90 and false (0) in all other cases.

[[record]]
compound = "O=C(c1ccc(N2CCCC2)cc1)C1CC1c1ccc(Cl)cc1 (stereo unspecified)"
category_label = "true (1)"

[[record]]
compound = "O=C(c1ccc(NCc2ccco2)cc1)C1CC1c1ccc(Cl)cc1 (stereo unspecified)"
category_label = "false (0)"

[[record]]
compound = "O=C(c1ccc(N2CCN(c3cccc(Cl)c3Cl)CC2)cc1)C1CC1c1ccc(Cl)cc1 (stereo unspecified)"
category_label = "true (1)"

[[record]]
compound = "O=C(c1ccc(NC2CCCCC2)cc1)C1CC1c1ccc(Cl)cc1 (stereo unspecified)"
category_label = "false (0)"

[[record]]
compound = "CCCCCCCCNc1ccc(C(=O)C2CC2c2ccc(Cl)cc2)cc1 (stereo unspecified)"
category_label = "false (0)"

[[record]]
compound = "CCCCCCCC/C=C\\CCCCCCCCNc1ccc(C(=O)C2CC2c2ccc(Cl)cc2)cc1 (stereo unspecified)"
category_label = "true (1)"

[[record]]
compound = "CN(C)CCCNc1ccc(C(=O)/C=C/c2ccc(Cl)cc2)cc1"
category_label = "true (1)"

[[record]]
compound = "O=C(/C=C/c1ccc(Cl)cc1)c1ccc(NCc2ccco2)cc1"
category_label = "false (0)"

[[record]]
compound = "O=C(/C=C/c1ccc(Cl)cc1)c1ccc(N2CCOCC2)cc1"
category_label = "true (1)"

[[record]]
compound = "CCCCN(CCCC)c1ccc(C(=O)C2CC2c2ccc(Cl)cc2)cc1 (stereo unspecified)"
category_label = "false (0)"

